Test system: P. vulgatus WT
test_protocol: growth AUC normalised to DMSO control (median) (fraction of control); higher = less growth inhibition, active = hit call of the paper
condition_description: 20 µM
Where a name gives a salt, the structure may show the parent alone.
Give condition met when the value for growth AUC normalised to DMSO control is at least 1. Give condition not met when it is less.

[[record]]
compound = "CC(CN(C)C)C(C)(O)Cc1ccc(Cl)cc1 (stereo not given) [Clobutinol hydrochloride]"
classification = "condition met"

[[record]]
compound = "CCc1c2c(nc3ccc(OC(=O)N4CCC(N5CCCCC5)CC4)cc13)-c1cc3c(c(=O)n1C2)COC(=O)[C@]3(O)CC [Irinotecan hydrochloride trihydrate]"
classification = "condition met"

[[record]]
compound = "CN(C)C(=O)COC(=O)Cc1ccc(OC(=O)c2ccc(NC(=N)N)cc2)cc1 [Camostat mesylate]"
classification = "condition met"

[[record]]
compound = "CCCSc1ccc2[nH]c(NC(=O)OC)nc2c1"
classification = "condition met"

[[record]]
compound = "O=C1c2cccc(O)c2C(=O)c2c(O)cccc21"
classification = "condition not met"

[[record]]
compound = "NCCCC(O)(P(=O)(O)O)P(=O)(O)O [Alendronate sodium]"
classification = "condition met"


* * *

Tested on: P. vulgatus WT
test_protocol: growth AUC normalised to DMSO control (median) (fraction of control); higher = less growth inhibition, active = hit call of the paper;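 active = normalised median growth AUC below 0.1 of DMSO control; inactive = AUC 0.1 or higher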
condition_description: 20 µM
Counter-ions that a name gives are not always drawn.
Labels: active, inactive

[[record]]
molecule = "Cc1ncc([N+](=O)[O-])n1CC(C)O (stereo unspecified)"
classification = "active"

[[record]]
molecule = "CN1Cc2c(N)cccc2C(c2ccccc2)C1 (stereo unspecified) [Nomifensine maleate]"
classification = "inactive"

[[record]]
molecule = "CC(C)c1nc(CN(C)C(=O)N[C@H](C(=O)N[C@@H](Cc2ccccc2)C[C@H](O)[C@H](Cc2ccccc2)NC(=O)OCc2cncs2)C(C)C)cs1"
classification = "inactive"

[[record]]
molecule = "Clc1ccc(CCC(Cn2ccnc2)Sc2c(Cl)cccc2Cl)cc1 (stereo unspecified) [Butoconazole nitrate]"
classification = "inactive"

[[record]]
molecule = "N=C(N)c1ccc(OCCCCCOc2ccc(C(=N)N)cc2)cc1 [Pentamidine isethionate]"
classification = "inactive"

[[record]]
molecule = "COc1cccc(OC)c1C(=O)N[C@@H]1C(=O)N2[C@@H]1SC(C)(C)[C@@H]2C(=O)O [Methicillin sodium]"
classification = "inactive"

[[record]]
molecule = "COc1cc(C)c(/C=C/C(C)=C/C=C/C(C)=C/C(=O)O)c(C)c1C"
classification = "inactive"

[[record]]
molecule = "C[C@H](O)[C@H](O)[C@H]1CNc2[nH]c(N)nc(=O)c2N1 [Sapropterin dihydrochloride]"
classification = "inactive"

[[record]]
molecule = "CN1CCN(C2Cc3ccccc3Sc3ccc(Cl)cc32)CC1 (stereo unspecified) [Octoclothepin maleate salt]"
classification = "inactive"

[[record]]
molecule = "C[C@@H]1CCO[C@H]2Cn3cc(C(=O)NCc4ccc(F)cc4F)c(=O)c(O)c3C(=O)N12"
classification = "active"

[[record]]
molecule = "CC(C)(C(=O)O)c1ccc(C(O)CCCN2CCC(C(O)(c3ccccc3)c3ccccc3)CC2)cc1 (stereo unspecified) [Fexofenadine hydrochloride]"
classification = "inactive"


* * *

Test system: P. vulgatus RND KO
test_protocol: growth AUC normalised to DMSO control (median) (fraction of control); higher = less growth inhibition, active = hit call of the paper
condition_description: 20 µM
Structures can show the parent of a compound that is named as a salt.
Where growth AUC normalised to DMSO control equals or exceeds 1, the correct label is met; where it does not, the label is not met.

[[record]]
compound = "CC1CS(=O)(=O)CCN1/N=C/c1ccc([N+](=O)[O-])o1 (stereo unspecified)"
experimental_system = "P. vulgatus RND KO"
classification = "not met"

[[record]]
compound = "Nc1ccc(S(=O)(=O)NC(=O)c2ccccc2)cc1 [Sulfabenzamide]"
experimental_system = "P. vulgatus RND KO"
classification = "met"

[[record]]
compound = "CN1CCC[C@@H]1CCO[C@](C)(c1ccccc1)c1ccc(Cl)cc1 [Clemastine fumarate]"
experimental_system = "P. vulgatus RND KO"
classification = "not met"

[[record]]
compound = "COC(=O)CCc1ccc(OCC(O)CNC(C)C)cc1 (stereo unspecified) [Esmolol hydrochloride]"
experimental_system = "P. vulgatus RND KO"
classification = "met"

[[record]]
compound = "COc1ccc2c(c1)N(C[C@H](C)CN(C)C)c1ccccc1S2 [Methotrimeprazine maleate salt]"
experimental_system = "P. vulgatus RND KO"
classification = "met"

[[record]]
compound = "NNC(=O)c1ccncc1"
experimental_system = "P. vulgatus RND KO"
classification = "met"


* * *

Test system: S. enterica typhimurium WT
test_protocol: growth AUC normalised to DMSO control (median) (fraction of control); higher = less growth inhibition, active = hit call of the paper
condition_description: 20 µM
Structures can show the parent of a compound that is named as a salt.
readout: growth AUC normalised to DMSO control

[[record]]
compound = "OC(CCN1CCCCC1)(c1ccccc1)c1ccccc1 [Pridinol methanesulfonate salt]"
readout = "growth AUC normalised to DMSO control"
result = 0.991

[[record]]
compound = "O=C(NCCCN1CCOCC1)c1ccc(Cl)cc1 [Eprobemide]"
readout = "growth AUC normalised to DMSO control"
result = 1.01

[[record]]
compound = "CN/C(=N\\CCSCc1nc[nH]c1C)NC#N"
readout = "growth AUC normalised to DMSO control"
result = 1

[[record]]
compound = "CC(=O)OC[C@H]1O[C@@H](n2ncc(=O)[nH]c2=O)[C@H](OC(C)=O)[C@@H]1OC(C)=O"
readout = "growth AUC normalised to DMSO control"
result = 1

[[record]]
compound = "Oc1ncnc2[nH]ncc12"
readout = "growth AUC normalised to DMSO control"
result = 0.999

[[record]]
compound = "Nc1ccccc1S(N)(=O)=O [o-Sulfanilamide]"
readout = "growth AUC normalised to DMSO control"
result = 1.01

[[record]]
compound = "CC1=C(/C=C/C(C)=C/C=C/C(C)=C\\C(=O)O)C(C)(C)CCC1"
readout = "growth AUC normalised to DMSO control"
result = 0.999

[[record]]
compound = "CC(C)[N+](C)(CCOC(=O)C1c2ccccc2Oc2ccccc21)C(C)C [Propantheline bromide]"
readout = "growth AUC normalised to DMSO control"
result = 1

[[record]]
compound = "COC(=O)C1=C(C)NC(C)=C(C(=O)OC2CCCN(Cc3ccccc3)C2)C1c1cccc([N+](=O)[O-])c1 (configuration not stated) [Benidipine hydrochloride]"
readout = "growth AUC normalised to DMSO control"
result = 0.993

[[record]]
compound = "CC1(C)S[C@@H]2[C@H](NC(=O)[C@H](C(=O)O)c3ccsc3)C(=O)N2[C@H]1C(=O)O [Ticarcillin sodium]"
readout = "growth AUC normalised to DMSO control"
result = 0.00844

[[record]]
compound = "O=C(O)CNC(=O)c1ccccc1"
readout = "growth AUC normalised to DMSO control"
result = 1.01

[[record]]
compound = "C[n+]1ccccc1/C=N/O [Pralidoxime chloride]"
readout = "growth AUC normalised to DMSO control"
result = 1.01


* * *

Tested on: P. vulgatus WT
test_protocol: growth AUC normalised to DMSO control (median) (fraction of control); higher = less growth inhibition, active = hit call of the paper
condition_description: 20 µM
Where a name gives a salt, the structure may show the parent alone.
readout: growth AUC normalised to DMSO control

[[record]]
compound = "CCCCC(O)c1ccccc1 (configuration not stated)"
readout = "growth AUC normalised to DMSO control"
result = "0.988 (inactive)"

[[record]]
compound = "CC(C)[C@H](N)C(=O)OCCOCn1cnc2c(=O)nc(N)[nH]c21 [Valacyclovir hydrochloride]"
readout = "growth AUC normalised to DMSO control"
result = "1.02 (inactive)"

[[record]]
compound = "CCOc1nc2cccc(C(=O)O)c2n1Cc1ccc(-c2ccccc2-c2nnn[nH]2)cc1"
readout = "growth AUC normalised to DMSO control"
result = "1 (inactive)"

[[record]]
compound = "CCN(CC)CCCC(C)Nc1c2ccc(Cl)cc2nc2ccc(OC)cc12 (configuration not stated) [Quinacrine dihydrochloride hydrate]"
readout = "growth AUC normalised to DMSO control"
result = "0.986 (inactive)"

[[record]]
compound = "COc1ccccc1Oc1c(NS(=O)(=O)c2ccc(C(C)(C)C)cc2)nc(-c2ncccn2)nc1OCCO"
readout = "growth AUC normalised to DMSO control"
result = "1.01 (inactive)"

[[record]]
compound = "COC(=O)Nc1nc2ccc(SC(C)C)cc2[nH]1"
readout = "growth AUC normalised to DMSO control"
result = "1.04 (inactive)"

[[record]]
compound = "CCNC(=O)CCC/C=C\\C[C@@H]1[C@@H](/C=C/[C@@H](O)CCc2ccccc2)[C@H](O)C[C@@H]1O"
readout = "growth AUC normalised to DMSO control"
result = "1.04 (inactive)"

[[record]]
compound = "N=C(N)NC(=N)NCCc1ccccc1 [Phenformin hydrochloride]"
readout = "growth AUC normalised to DMSO control"
result = "1.04 (inactive)"

[[record]]
compound = "CC(C)(C)NC[C@@H](O)COc1cccc2c1CCCC2=O [(+) Levobunolol hydrochloride]"
readout = "growth AUC normalised to DMSO control"
result = "0.975 (inactive)"

[[record]]
compound = "NC(=O)N1c2ccccc2C=Cc2ccccc21 [Carbamazepine]"
readout = "growth AUC normalised to DMSO control"
result = "1.04 (inactive)"

[[record]]
compound = "Nc1ccc(C(=O)NCC(=O)O)cc1"
readout = "growth AUC normalised to DMSO control"
result = "1.01 (inactive)"

[[record]]
compound = "CCOc1nc2cccc(C(=O)OCc3oc(=O)oc3C)c2n1Cc1ccc(-c2ccccc2-c2noc(=O)[nH]2)cc1"
readout = "growth AUC normalised to DMSO control"
result = "0.962 (inactive)"

